# Lookup of reported IC50 keyed by entry
# experimental.target: recombinant HMGCR protein (Homo sapiens)
# Sequence (P04035 426-888 limits assumed, species assumed): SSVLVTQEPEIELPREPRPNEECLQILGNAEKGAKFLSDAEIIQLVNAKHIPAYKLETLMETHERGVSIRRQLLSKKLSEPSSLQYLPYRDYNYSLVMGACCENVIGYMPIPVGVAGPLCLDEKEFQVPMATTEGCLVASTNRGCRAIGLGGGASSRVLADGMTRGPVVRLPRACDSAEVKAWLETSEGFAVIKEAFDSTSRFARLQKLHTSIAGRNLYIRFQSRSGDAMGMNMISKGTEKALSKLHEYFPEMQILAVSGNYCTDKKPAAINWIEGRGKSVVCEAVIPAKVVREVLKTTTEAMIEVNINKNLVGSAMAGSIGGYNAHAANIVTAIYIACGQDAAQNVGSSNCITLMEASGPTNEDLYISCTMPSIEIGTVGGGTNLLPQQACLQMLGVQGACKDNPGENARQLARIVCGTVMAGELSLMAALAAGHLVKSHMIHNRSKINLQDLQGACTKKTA
# protocol.notes: HMG-CoA reductase activity assay
State the answer as a number, implicitly in µM.

// below: answered compounds
- compound: "C[C@H]1C=C2C=C[C@H](C)[C@H](CC[C@@H]3C[C@@H](O)CC(=O)O3)[C@H]2[C@@H](OC(=O)NCCOCCOCCNc2cccc3c2C(=O)N(C2CCC(=O)NC2=O)C3=O)C1 (some centres unmarked) [Compound 16b]"
  IC50 / µM: 1.88
- compound: "C[C@H]1C=C2C=C[C@H](C)[C@H](CC[C@@H]3C[C@@H](O)CC(=O)O3)[C@H]2[C@@H](OC(=O)NCCCNc2cccc3c2C(=O)N(C2CCC(=O)NC2=O)C3=O)C1 (some centres unmarked) [Compound 16c]"
  IC50 / µM: 2.49
- compound: "Cc1ncsc1-c1ccc(CNC(=O)[C@@H]2C[C@@H](O)CN2C(=O)[C@@H](NC(=O)CCCCCCCNC(=O)O[C@H]2C[C@@H](C)C=C3C=C[C@H](C)[C@H](CC[C@@H]4C[C@@H](O)CC(=O)O4)[C@H]32)C(C)(C)C)cc1 [Compound 21a]"
  IC50 / µM: 1.56

Given the compound C[C@H]1C=C2C=C[C@H](C)[C@H](CC[C@@H]3C[C@@H](O)CC(=O)O3)[C@H]2[C@@H](OC(=O)NCCCOCCOCCOCCCNc2cccc3c2C(=O)N(C2CCC(=O)NC2=O)C3=O)C1 (some centres unmarked) [Compound 16a] , what is its reported IC50? 1.25

Given the compound Cc1ncsc1-c1ccc(CNC(=O)[C@@H]2C[C@@H](O)CN2C(=O)[C@@H](NC(=O)CCCCCCCCCCNC(=O)O[C@H]2C[C@@H](C)C=C3C=C[C@H](C)[C@H](CC[C@@H]4C[C@@H](O)CC(=O)O4)[C@H]32)C(C)(C)C)cc1 [Compound 21b] , what is its reported IC50? 1.32

###

# protocol.notes: In vitro metabolic stability in mouse liver microsomes
# Type: in vitro ADME
# run.parameters: mouse, liver microsomes, pH 7.4, CLint (mL/min/kg), mouse liver microsomes; mean of duplicate
measurement.kind: CLint scaled at 1 μmol/L (mL/min/kg)
State the answer as a number, implicitly in mL/min/kg.

Given the compound Cc1ncsc1-c1ccc(CNC(=O)[C@@H]2C[C@@H](O)CN2C(=O)[C@@H](NC(=O)CCCCCCCCCCNC(=O)O[C@H]2C[C@@H](C)C=C3C=C[C@H](C)[C@H](CC[C@@H]4C[C@@H](O)CC(=O)O4)[C@H]32)C(C)(C)C)cc1 [Compound 21b] , what is its reported CLint scaled at 1 μmol/L? 416
